FYI, the data here is from ChEMBL document CHEMBL1255341.

# Assay method text: AUC (0 to infinity) in human at 400 mg, po administered with 400 mg ketoconazole after 7 days
# Type: ADME, organism-based
# Design: dose 400 mg, time infinity, route oral
# Assay conditions: plasma
Reported endpoint: AUC(0-inf) (µg·h/mL)
Could you give me the number in µg·h/mL? Just the number is fine.

Query: AUC(0-inf); subject: CC(C)Nc1nc2cc(Cl)c(Cl)cc2n1[C@H]1O[C@@H](CO)[C@H](O)[C@@H]1O
194

###

# Assay method text: Tmax in human plasma at 400 mg, po after 24 hrs
# Assay type: ADME, organism-based
Reported endpoint: Tmax (h)
Could you give me the number in h? Just the number is fine.

Query: Tmax; subject: CC(C)Nc1nc2cc(Cl)c(Cl)cc2n1[C@H]1O[C@@H](CO)[C@H](O)[C@@H]1O [MARIBAVIR]
1.7

###

# Assay method text: Cmax in human plasma at 400 mg, po administered with 400 mg ketoconazole after 7 days
# Type: ADME, organism-based
# Parameters: dose 400 mg, route oral
Reported endpoint: Cmax
Remember to follow the number with its unit.

Query: Cmax; subject: CC(C)Nc1nc2cc(Cl)c(Cl)cc2n1[C@H]1O[C@@H](CO)[C@H](O)[C@@H]1O [MARIBAVIR]
21800 ng/mL

###

# Assay method text: Volume of distribution with respect to oral bioavailability in human at 400 mg, po administered with 400 mg ketoconazole after 7 days
# Type: ADME, organism-based
# Assay conditions: in vivo, read-out: Vss/F
Reported endpoint: Vd/F

Query: Vd/F; subject: CC(C)Nc1nc2cc(Cl)c(Cl)cc2n1[C@H]1O[C@@H](CO)[C@H](O)[C@@H]1O [MARIBAVIR]
21.6 L

###

# Assay method text: Renal clearance in human at 400 mg, po administered with 400 mg ketoconazole after 7 days
# Assay type: ADME, organism-based, Kidney
# Assay conditions: in vivo
Reported endpoint: CL renal at 168 h (mL/min)
Could you give me the number in mL/min? Just the number is fine.

Query: CL renal at 168 h; subject: CC(C)Nc1nc2cc(Cl)c(Cl)cc2n1[C@H]1O[C@@H](CO)[C@H](O)[C@@H]1O
0.953

###

# Assay method text: Apparent oral clearance in human at 400 mg, po after 24 hrs
# Type: ADME, organism-based
# Assay conditions: in vivo
Reported endpoint: CL/F
Remember to follow the number with its unit.

Query: CL/F; subject: CC(C)Nc1nc2cc(Cl)c(Cl)cc2n1[C@H]1O[C@@H](CO)[C@H](O)[C@@H]1O [MARIBAVIR]
59.3 mL/min

###

# Assay method text: Apparent oral clearance in human at 400 mg, po administered with 400 mg ketoconazole after 7 days
# Type: ADME, organism-based
# Assay conditions: in vivo
Reported endpoint: CL/F (mL/min)
Could you give me the number in mL/min? Just the number is fine.

Query: CL/F; subject: CC(C)Nc1nc2cc(Cl)c(Cl)cc2n1[C@H]1O[C@@H](CO)[C@H](O)[C@@H]1O
38.7

###

# Assay method text: Volume of distribution with respect to oral bioavailability in human at 400 mg, po after 24 hrs
# Format: ADME, organism-based
# Assay conditions: in vivo, read-out: Vss/F
Reported endpoint: Vd/F (L)
Could you give me the number in L? Just the number is fine.

Query: Vd/F; subject: CC(C)Nc1nc2cc(Cl)c(Cl)cc2n1[C@H]1O[C@@H](CO)[C@H](O)[C@@H]1O
27.5
